Molecular target: T1, human ROR1 expressed on cells (MDA-MB-231, Jeko-1, PA-1, HCC1187) (human, UniProt Q01973 30-937)
T1 construct: also called hROR1
T1 sequence (Q01973 30-937 limits assumed): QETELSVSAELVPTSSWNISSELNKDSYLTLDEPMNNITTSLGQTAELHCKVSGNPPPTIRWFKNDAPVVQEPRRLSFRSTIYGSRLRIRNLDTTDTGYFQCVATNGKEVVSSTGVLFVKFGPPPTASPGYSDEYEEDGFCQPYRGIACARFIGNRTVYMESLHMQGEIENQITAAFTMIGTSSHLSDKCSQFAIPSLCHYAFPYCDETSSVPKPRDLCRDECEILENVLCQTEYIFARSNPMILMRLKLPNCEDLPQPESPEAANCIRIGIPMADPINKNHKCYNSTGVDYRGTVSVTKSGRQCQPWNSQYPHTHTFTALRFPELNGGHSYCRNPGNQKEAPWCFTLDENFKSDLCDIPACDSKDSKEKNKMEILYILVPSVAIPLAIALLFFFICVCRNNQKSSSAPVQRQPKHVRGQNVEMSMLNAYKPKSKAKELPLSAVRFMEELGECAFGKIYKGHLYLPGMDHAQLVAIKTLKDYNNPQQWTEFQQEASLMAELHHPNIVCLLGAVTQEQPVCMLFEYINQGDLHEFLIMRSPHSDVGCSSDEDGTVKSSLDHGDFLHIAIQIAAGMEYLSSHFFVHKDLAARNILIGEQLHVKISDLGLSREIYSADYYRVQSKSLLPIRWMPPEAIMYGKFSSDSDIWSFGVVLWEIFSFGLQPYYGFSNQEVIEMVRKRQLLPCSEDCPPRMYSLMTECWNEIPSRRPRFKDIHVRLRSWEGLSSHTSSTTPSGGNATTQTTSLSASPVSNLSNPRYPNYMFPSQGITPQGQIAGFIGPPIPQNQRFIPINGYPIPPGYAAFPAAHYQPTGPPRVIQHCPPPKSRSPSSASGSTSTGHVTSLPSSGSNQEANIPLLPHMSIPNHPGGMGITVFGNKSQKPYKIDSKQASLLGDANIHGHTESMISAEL
Assay: flow cytometry on MDA-MB-231 cells
measurement type: EC50 (µg/mL)
Expressed in µg/mL, but write only the number.

## Input Field request: EC50 | item: humanized antibody BRHu-3 (antibody, human IgG1, kappa, V domains shown, humanized D10, human IgG1 / kappa) VH: QVQLQESGPGLVKPSETLSLTCTVSGFSLTSYGVHWIRQPPGKGLEWLGVIWAGGFTNYNSALKSRLTISKDNSKNQVSLKLSSVTAADTAVYYCARRGSSYSMDYWGQGTLVTVSS VL: EIVLTQSPATLSLSPGERATLSCSASSNVSYIHWYQQKPGQAPRPWIYEISKLASGIPARFSGSGSGTDYTLTISSLEPEDFAVYYCQQWNYPLITFGQGTKLEIKR
## Output 0.09
